Tested on: Jurkat cells
Assay: Inhibitory action for G2 checkpoint using Jurkat cells (cell cycle by FACS)
Format: cell-based, human
Conditions: specificity to the G2 phase cells, Table 1
recordedEndpoint: selectivity
# output: bare number, no unit

Example results:
[[record]]
compound = "C=C(C(=O)O)C(CCCCCCCC(=O)OC)C(=O)O (stereo not drawn) [E]"
recordedendpoint = "selectivity"
resultvalue = 8

[[record]]
compound = "C=C(C(=O)O)C(CCCCCC(=O)OC)C(=O)O (stereo not drawn) [B]"
recordedendpoint = "selectivity"
resultvalue = 2

[[record]]
compound = "C=C(C(=O)O)C(CCCCCC(=O)OC)C(=O)OC (stereo not drawn) [D]"
recordedendpoint = "selectivity"
resultvalue = 7

[[record]]
compound = "C=C(C(=O)O)C(CCCC(=O)OCC)C(=O)O (stereo not drawn) [F]"
recordedendpoint = "selectivity"
resultvalue = 2

[[record]]
compound = "C=C(C(=O)O)C(CCCCCC(=O)OCC)C(=O)O (stereo not drawn) [C]"
recordedendpoint = "selectivity"
resultvalue = 2


Below: the item to evaluate.
Q: # query: selectivity of entry C=C(C(=O)O)C(CCCC(=O)OC)C(=O)OC (stereo not drawn) [A]
Result: 2
